experiment: Solubility of crystalline forms 1 and 2 in various media; assay type: physicochemical; conditions: ethanol, organic solvent or mixture, thermodynamic from solid, ethanol; read-out: Solubility
endpoint label: Solubility (µg/mL)
The reply should contain only the number, in µg/mL.

Problem: What value of Solubility has been recorded for this entry: Cc1[nH]c(/C=C2\C(=O)Nc3ccc(F)cc32)c(C)c1C(=O)N[C@H]1CCN(C(=O)N(C)C)C1 [crystalline form 2]
Solution: 1940

====

experiment: Solubility determination in water by HPLC; assay type: physicochemical; conditions: suspension in water, 25° C., 4 hours
Field: concentration (solubility in water). Provide a value for each of the compounds that follow.
The reply should contain only the number, in µg/mL.

Problem: What value of concentration (solubility in water) has been recorded for this entry: Cc1[nH]c(/C=C2\C(=O)Nc3ccc(F)cc32)c(C)c1C(=O)N[C@H]1CCN(C(=O)N(C)C)C1 [crystalline form 6]
Solution: 0.37

Problem: What value of concentration (solubility in water) has been recorded for this entry: Cc1[nH]c(/C=C2\C(=O)Nc3ccc(F)cc32)c(C)c1C(=O)N[C@H]1CCN(C(=O)N(C)C)C1 [crystalline form 5]
Solution: 0.42

Problem: What value of concentration (solubility in water) has been recorded for this entry: Cc1[nH]c(/C=C2\C(=O)Nc3ccc(F)cc32)c(C)c1C(=O)N[C@H]1CCN(C(=O)N(C)C)C1 [crystalline form 2]
Solution: 0.26
